- target.or.system: VEGFR2 (Homo sapiens, UniProt P35968)
- Construct: coding for the cytoplasmic domain, beginning with lysine 791 and including the termination codon; made in house; host or cells: Sf9 insect cells, baculovirus (pFastBacHis)
- Sequence (P35968 786-1356 limits assumed): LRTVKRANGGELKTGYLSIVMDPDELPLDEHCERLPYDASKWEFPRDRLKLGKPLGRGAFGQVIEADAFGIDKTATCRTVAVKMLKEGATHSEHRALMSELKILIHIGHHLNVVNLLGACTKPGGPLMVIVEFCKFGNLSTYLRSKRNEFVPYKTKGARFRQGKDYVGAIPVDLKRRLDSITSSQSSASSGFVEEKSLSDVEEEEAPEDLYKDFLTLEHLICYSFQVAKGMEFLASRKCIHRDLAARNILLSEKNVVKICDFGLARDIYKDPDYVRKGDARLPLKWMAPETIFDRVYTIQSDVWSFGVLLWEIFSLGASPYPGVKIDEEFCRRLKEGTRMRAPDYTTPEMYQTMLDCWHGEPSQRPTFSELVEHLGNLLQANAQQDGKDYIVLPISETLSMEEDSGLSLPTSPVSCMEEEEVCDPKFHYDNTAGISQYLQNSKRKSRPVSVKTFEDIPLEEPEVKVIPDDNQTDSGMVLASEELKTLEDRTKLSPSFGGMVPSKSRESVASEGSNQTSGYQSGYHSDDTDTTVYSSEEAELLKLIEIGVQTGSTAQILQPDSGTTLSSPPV
- test.description: Inhibition against receptor tyrosine kinase activity (HTRF), VEGFR2
- Type: biochemical
- condition: His6-VEGFR2 cytoplasmic domain, biotin-poly(GT), HTRF; read-out: VEGFR2 kinase IC50
pIC50: −log10 of the molar value.
Would you please tag the item Condition met when its pIC50 is 8 or above, and Condition not met when it is below?

CNC(=O)n1ccc2cc(Oc3ccnc(NC(=O)N4CCC(N5CCCCC5)CC4)c3)ccc21 :: Condition not met
CNC(=O)n1ccc2cc(Oc3ccnc(NC(=O)N4CCC4)c3)ccc21 :: Condition met
CCNC(=O)n1ccc2cc(Oc3ccnc(NC(=O)N4CCC4)c3)ccc21 :: Condition met

* * *

- target.or.system: VEGFR2 (Homo sapiens)
- Construct: coding for the cytoplasmic domain, beginning with lysine 791 and including the termination codon; made in house; host or cells: Sf9 insect cells, baculovirus (pFastBacHis)
- test.description: Inhibition against receptor tyrosine kinase activity (HTRF), VEGFR2
- Format: biochemical
- condition: His6-VEGFR2 cytoplasmic domain, biotin-poly(GT), HTRF; read-out: VEGFR2 kinase IC50
This listing pairs molecules with measured IC50.
measurement.type: IC50 (nM)

CCNC(=O)n1ccc2cc(Oc3ccnc(NC(=O)N4CCOCC4)c3)ccc21 [Example 82] :: 15
CNC(=O)n1ccc2cc(Oc3ccnc(NC(=O)NCCCC(=O)N4CCCC4)c3)ccc21 [Example 32] :: 9.3
CNC(=O)CCCC1CCN(C(=O)Nc2cc(Oc3ccc4c(ccn4C(=O)NC)c3)ccn2)CC1 [Example 43] :: 6.4

* * *

- target.or.system: FGFR1 (Homo sapiens, UniProt P11362)
- Construct: made in house; host or cells: Sf9 insect cells, baculovirus (pFastBacHis), by the same method as VEGFR2
- Sequence (P11362 398-822 limits assumed): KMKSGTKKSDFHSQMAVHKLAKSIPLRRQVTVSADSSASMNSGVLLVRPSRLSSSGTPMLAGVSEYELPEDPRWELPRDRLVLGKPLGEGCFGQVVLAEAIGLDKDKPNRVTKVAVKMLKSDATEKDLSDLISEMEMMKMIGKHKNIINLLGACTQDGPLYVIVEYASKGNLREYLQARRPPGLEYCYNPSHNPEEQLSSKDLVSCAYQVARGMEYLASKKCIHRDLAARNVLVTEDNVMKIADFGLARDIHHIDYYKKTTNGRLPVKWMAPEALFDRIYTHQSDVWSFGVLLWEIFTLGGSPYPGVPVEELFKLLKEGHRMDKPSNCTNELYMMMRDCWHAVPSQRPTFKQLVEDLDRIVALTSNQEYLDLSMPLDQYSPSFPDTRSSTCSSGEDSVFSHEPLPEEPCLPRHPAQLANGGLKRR
- test.description: Inhibition against receptor tyrosine kinase activity (HTRF), FGFR1
- Type: biochemical
- condition: His6-FGFR1 cytoplasmic domain, biotin-poly(GT), HTRF; read-out: FGFR1 kinase IC50
- Excerpt: This assay is used to determine inhibition of a test substance on tyrosine kinase activity. DNA coding for the cytoplasmic domain of VEGFR2 is obtained by total cDNA synthesis (Edwards M, International Biotechnology Lab 5(3), 19-25, 1987) or by cloning. Expression in an appropriate expression system can produce a polypeptide with tyrosine kinase activity. […]
measurement.type: IC50 (nM)

CNC(=O)n1ccc2cc(Oc3ccnc(NC(=O)NCCCS(C)(=O)=O)c3)ccc21 [Example 50] :: 13
CCNC(=O)n1ccc2cc(Oc3ccnc(NC(=O)N4CCC4)c3)ccc21 [Example 207] :: 12
CNC(=O)CCCNC(=O)Nc1cc(Oc2ccc3c(ccn3C(=O)NC)c2)ccn1 [Example 36] :: 16

* * *

- target.or.system: VEGFR2 (Homo sapiens, UniProt P35968)
- Construct: coding for the cytoplasmic domain, beginning with lysine 791 and including the termination codon; made in house; host or cells: Sf9 insect cells, baculovirus (pFastBacHis)
- test.description: Inhibition against receptor tyrosine kinase activity (HTRF), VEGFR2
- Format: biochemical
- condition: His6-VEGFR2 cytoplasmic domain, biotin-poly(GT), HTRF; read-out: VEGFR2 kinase IC50
pIC50: −log10 of the molar value.
This listing pairs compounds with measured pIC50.
measurement.type: pIC50

CCCNC(=O)n1ccc2cc(Oc3ccnc(NC(=O)N4CCCC4)c3)ccc21 [Example 213] :: 8.00
CNC(=O)Nc1cc(Oc2ccc3c(ccn3C(=O)NC)c2)ccn1 [Example 116] :: 7.85
O=C(Nc1cc(Oc2ccc3c(ccn3C(=O)NC3CC3)c2)ccn1)N1CCCC1 [Example 88] :: 7.85
CNC(=O)n1ccc2cc(Oc3ccnc(NC(=O)N4CCC(C)(O)CC4)c3)ccc21 [Example 41] :: 8.21
CNC(=O)n1ccc2cc(Oc3ccnc(NC(=O)N4CCC(CCCC(N)=O)CC4)c3)ccc21 [Example 44] :: 8.11
